Target: HCMV polymerase (Human cytomegalovirus, UniProt P08546)
Construct: made in house; host or cells: recombinant baculovirus-infected SF-9 cells
Sequence (P08546 whole entry): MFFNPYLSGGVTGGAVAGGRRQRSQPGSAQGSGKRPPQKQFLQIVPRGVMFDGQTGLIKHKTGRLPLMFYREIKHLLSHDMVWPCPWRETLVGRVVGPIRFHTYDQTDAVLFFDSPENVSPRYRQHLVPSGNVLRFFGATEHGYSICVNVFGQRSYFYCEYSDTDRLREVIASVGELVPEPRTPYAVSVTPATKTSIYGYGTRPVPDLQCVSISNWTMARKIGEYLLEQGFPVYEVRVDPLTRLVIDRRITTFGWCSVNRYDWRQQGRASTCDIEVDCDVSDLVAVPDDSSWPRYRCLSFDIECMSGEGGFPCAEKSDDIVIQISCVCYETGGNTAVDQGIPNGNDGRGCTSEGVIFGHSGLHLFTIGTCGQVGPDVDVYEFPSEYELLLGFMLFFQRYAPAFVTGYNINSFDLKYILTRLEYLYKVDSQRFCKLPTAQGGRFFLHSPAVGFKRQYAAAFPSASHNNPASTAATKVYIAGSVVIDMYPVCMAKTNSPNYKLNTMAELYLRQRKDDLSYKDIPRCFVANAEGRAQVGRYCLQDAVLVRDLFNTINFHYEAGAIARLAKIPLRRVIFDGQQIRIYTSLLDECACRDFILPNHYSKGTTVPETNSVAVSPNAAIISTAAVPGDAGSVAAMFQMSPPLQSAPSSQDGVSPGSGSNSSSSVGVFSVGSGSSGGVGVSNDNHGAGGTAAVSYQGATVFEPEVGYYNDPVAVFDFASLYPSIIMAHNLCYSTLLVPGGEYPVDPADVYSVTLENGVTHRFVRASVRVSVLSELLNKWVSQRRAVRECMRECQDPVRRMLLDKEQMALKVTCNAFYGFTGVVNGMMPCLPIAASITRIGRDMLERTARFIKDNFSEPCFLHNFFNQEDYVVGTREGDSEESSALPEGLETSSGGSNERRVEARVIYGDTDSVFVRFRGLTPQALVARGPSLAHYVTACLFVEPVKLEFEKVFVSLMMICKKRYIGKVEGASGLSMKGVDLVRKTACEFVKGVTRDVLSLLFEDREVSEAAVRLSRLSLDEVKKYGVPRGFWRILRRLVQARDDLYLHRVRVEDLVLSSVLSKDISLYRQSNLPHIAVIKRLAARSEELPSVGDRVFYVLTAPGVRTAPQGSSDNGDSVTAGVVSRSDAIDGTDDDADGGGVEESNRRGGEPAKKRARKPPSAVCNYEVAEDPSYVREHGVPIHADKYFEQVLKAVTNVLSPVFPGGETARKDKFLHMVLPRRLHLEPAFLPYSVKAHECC
Experiment: HCMV polymerase scintillation proximity assay (SPA)
Assay type: biochemical
Details: HCMV polymerase, SPA; read-out: Polymerase IC50 HCMV
Response field label: string, one of yes (IC50 strictly below 100 nM) or no.

Example results:
{"columns": ["COMPOUND", "CLASS LABEL"],
 "data": [
  ["CN(Cc1cc2c(=O)c(C(=O)NCc3ccc(Cl)cc3)cn(CC(O)CO)c2s1)C[C@@H](O)c1ccccn1 (stereo partly drawn)", "no"],
  ["CN(Cc1cc2c(=O)c(C(=O)NCc3ccc(Cl)cc3)cn(C)c2s1)CC(O)c1ncccn1 (racemic)", "no"],
  ["CCCn1cc(C(=O)NCc2ccc(Cl)cc2)c(=O)c2cc(CN(C)CC(O)c3cnccn3)sc21 (racemic)", "no"],
  ["CN(Cc1cc2c(=O)c(C(=O)NCc3ccc(Cl)cc3)cn(C)c2s1)CC(O)c1cccnn1 (stereo not drawn)", "no"],
  ["CN(Cc1cc2c(=O)c(C(=O)NCc3ccc(Cl)cc3)cn(C)c2s1)CC(O)c1cccnc1 (single isomer, unassigned; (+)) [Example 2]", "yes"]
]}

# ---- query compound ----
IC50 under 100 nM? Item: CCn1cc(C(=O)NCc2ccc(Cl)cc2)c(=O)c2cc(CN(C)CC(O)c3cnccn3)sc21 (racemic)
no

----------
Values of pIC50 reported for HSV polymerase (Human herpesvirus 1) appear below.
Give bare numbers, as −log10 of the molar value.

# annotated cases, reported pIC50 shown
{"columns": ["COMPOUND", "pIC50"],
 "data": [
  ["CN(Cc1cc2c(=O)c(C(=O)NCc3ccc(Cl)cc3)cn(C)c2s1)C[C@@H](O)c1ncccn1", 6.89],
  ["CN(Cc1cc2c(=O)c(C(=O)NCc3ccc(Cl)cc3)cn(C)c2s1)CC(O)c1cnccn1 (racemic)", 7.00]
]}

Pending compound:
For the compound CN(Cc1cc2c(=O)c(C(=O)NCc3ccc(Cl)cc3)cn(C)c2s1)CC(O)c1ccccn1 (racemic) , what pIC50 is on record?
7.00
